# System: 786-0 renal
# EXPERIMENT_SUMMARY: NCI tumour cell line growth inhibition, 48 h
Reported TGI values follow for various compounds

Before answering, review these 5 worked examples.
COMPOUND	MEASURED_ON	TGI
Cc1ccc(S(=O)(=O)NC(CCC(=O)NN)C(=O)NN)cc1 (stereo unspecified)	786-0 renal	> 100 µM
COC(=O)CNC(=O)c1cc(C)cc2c1Oc1c(cc(C)cc1C(=O)NCC(=O)OC)S2	786-0 renal	> 100 µM
Cc1sccc1C(=S)Nc1ccc(Cl)c(/C=N/OC(C)(C)C)c1	786-0 renal	49.4 µM
Cc1cn(CCOCCOC(=O)NC(CCCN=C(N)N)C(=O)O)c(=O)[nH]c1=O (stereo unspecified)	786-0 renal	> 100 µM
COc1c(CC(=O)c2ccccc2)c2ccccc2n1C(C)=O	786-0 renal	> 100 µM

In: For the compound COc1nc(NC2OC(COC(C)=O)C(OC(C)=O)C(OC(C)=O)C2OC(C)=O)c(N=CC=Nc2c(NC3OC(COC(C)=O)C(OC(C)=O)C(OC(C)=O)C3OC(C)=O)nc(OC)n(C)c2=O)c(=O)n1C (stereo unspecified) , what TGI is on record?
Out: > 100 µM

In: For the compound Cc1ccc(S(=O)(=O)O/N=C2\CCC\C2=C/c2ccccc2)cc1 , what TGI is on record?
Out: 67.9 µM

In: For the compound COc1cc(-n2cncc2-c2ccc3ccccc3c2)cc(OC)c1OC , what TGI is on record?
Out: 18.5 µM

In: For the compound O=c1c2ccccc2nc(/C=C(\O)c2ccccc2)n1-c1ccccc1Cl , what TGI is on record?
Out: > 100 µM

In: For the compound CN(O)C(=O)c1ccccc1 , what TGI is on record?
Out: > 100 µM

In: For the compound C=C(C)[C@@H]1CC[C@]2(COC(C)=O)CC[C@]3(C)[C@H](CC[C@@H]4[C@@]5(C)CC[C@H](OC(C)=O)C(C)(C)[C@@H]5CC[C@]43C)[C@@H]12 , what TGI is on record?
Out: > 50 µM

In: For the compound O=[N+]([O-])C(=C1NCCN1)/C(Cl)=C(/Cl)N1CCOCC1 , what TGI is on record?
Out: > 100 µM

* * *

# Test system: A498 renal
# EXPERIMENT_SUMMARY: NCI tumour cell line growth inhibition, 48 h
Reported TGI values follow for various compounds

Before answering, review these 3 worked examples.
COMPOUND	TGI
O=[N+]([O-])c1ccc(N=Nc2c(O)ccc3cc(S(=O)(=O)O)cc(S(=O)(=O)O)c23)cc1	> 100000 nM
O=C1OCC2=C1C(c1cccc(F)c1)c1cc3c(cc1N2CCO)CCC3 (centres undefined)	261 nM
C=C(Br)CN(C)CC(=C)Br	> 100000 nM

In: Lookup: TGI / A498 renal / O=C1C[C@H](Sc2ccccc2)C2(OCCO2)[C@H]2ON3CCC[C@@H]3[C@@H]12
Out: 27900 nM

In: Lookup: TGI / A498 renal / COC1C(CO)OC(n2c3ccccc3c3c4c(c5c6ccccc6[nH]c5c32)C(=O)NC4=O)C(OC(=O)C(N)CCCCN)C1O (centres undefined)
Out: 230 nM

* * *

# Tested on: K-562 leukemia
# EXPERIMENT_SUMMARY: NCI tumour cell line growth inhibition, 48 h
MEASURED_METRIC: TGI

Before answering, review these 8 worked examples.
COMPOUND	TGI
CCOC(=O)C=C1CCC2(CC1)OCCO2	> 100 µM
Cn1nc(-c2cccs2)cc1/N=C(\N)C(C)(C#N)Cc1ccccc1 (stereo unspecified)	> 100 µM
Cc1ccc2nc(C=Nc3ccccc3Cl)cc(C)c2c1	> 100 µM
COc1cc2c(cc1OC)C(=O)/C(=C/c1ccccc1)CC2	> 100 µM
Cc1cc(C)c(CNC(=O)c2cc(-c3ccc(CN4CCOCC4)cc3)cc3c2cnn3C2CCCC2)c(=O)[nH]1	> 100 µM
CCCCCCCCCCCCCCCCP(=O)(OC)OC	44.8 µM
COc1ccc(C23c4ccc(OC)cc4CC2(c2ccc([N+](=O)[O-])cc2)Cc2cc(OC)ccc23)cc1 (stereo unspecified)	> 100 µM
CC1=C(SCCC(=O)OCC(=O)NCCC[Te]c2ccccc2)C(=O)c2ccccc2C1=O	19.4 µM

In: For the compound O=C1OCC2=C1C(c1cccc(F)c1)c1cc3c(cc1N2CCO)CCC3 (stereo unspecified) , what TGI is on record?
Out: > 50 µM

In: For the compound CCOc1cc(NC(C)=O)ccc1C(=O)NN1C(=O)/C(=C/c2ccco2)N=C1c1ccccc1 , what TGI is on record?
Out: > 100 µM

In: For the compound Cn1c(=O)c2ccccc2c2nc3ccccc3nc21 , what TGI is on record?
Out: > 100 µM

* * *

# Tested on: BT-549 breast
# EXPERIMENT_SUMMARY: NCI tumour cell line growth inhibition, 48 h
TGI below 7 µM gives Criterion not met; TGI at or above it gives Criterion met.

In: Assess whether reported TGI for Nc1ncnc2oc(-c3cccs3)nc12 sits at 7 µM or higher.
Out: Criterion met

In: Assess whether reported TGI for CC(C)(C)c1[nH]nc2c1C(c1cc3ccccc3[nH]c1=O)Nc1cc(C(=O)Nc3ccc(Cl)cc3)ccc1N2 (stereo not given) sits at 7 µM or higher.
Out: Criterion not met

In: Assess whether reported TGI for COc1ccc2c(CCC(c3ccccc3)c3ccccc3)c3[n+](cc2c1OC)CCc1cc2c(cc1-3)OCO2 sits at 7 µM or higher.
Out: Criterion not met

In: Assess whether reported TGI for CC1=C(SCCC(=O)OCC(=O)NCCC[Te]c2ccccc2)C(=O)c2ccccc2C1=O sits at 7 µM or higher.
Out: Criterion not met

In: Assess whether reported TGI for O=C1C=Cc2cscc21 sits at 7 µM or higher.
Out: Criterion met

In: Assess whether reported TGI for Cc1cccc(NC(=O)c2sc3nc4c(cc3c2N)CCCC4)c1 sits at 7 µM or higher.
Out: Criterion met

In: Assess whether reported TGI for CCN(CC)CCCNc1nc2ccccc2[n+]([O-])n1 sits at 7 µM or higher.
Out: Criterion met

In: Assess whether reported TGI for Cc1ccc(C[N+](C)(C)N)cc1C sits at 7 µM or higher.
Out: Criterion met

In: Assess whether reported TGI for COC(=O)C1=C(C)NC(C)=C(C(=O)OC)C1c1ccc(NO)cc1 sits at 7 µM or higher.
Out: Criterion met

* * *

# Test system: SK-MEL-28 melanoma
# EXPERIMENT_SUMMARY: NCI tumour cell line growth inhibition, 48 h
MEASURED_METRIC: TGI

In: For the compound Cc1cc(C)c(CNC(=O)c2cc(-c3ccc(CN4CCOCC4)cc3)cc3c2cnn3C2CCCC2)c(=O)[nH]1 , what TGI is on record?
Out: 32.4 µM

In: For the compound COc1cc2c(cc1OC)C(=O)/C(=C/c1ccccc1)CC2 , what TGI is on record?
Out: > 100 µM

In: For the compound O=c1c(O)c(O)c1=O.[NH2-].[NH2-].[NH2-].[NH2-].[NH2-].[Ru+5] , what TGI is on record?
Out: > 100 µM

In: For the compound CCc1cccc(C(C)C)c1NC(=O)C(=O)C1C(=O)NC(=O)NC1=O , what TGI is on record?
Out: > 100 µM

In: For the compound OCCNc1ncnc2nc[nH]c12 , what TGI is on record?
Out: > 100 µM

In: For the compound CC(C)=CC(=O)OCC(=O)O[C@@H]1C[C@]2(C(C)C)O[C@@]1(C)[C@@H]1CC[C@@H](C)[C@H]1[C@@H]2OC(=O)/C=C/c1ccccc1 , what TGI is on record?
Out: > 100 µM

In: For the compound N#CC(C#N)=C/C=C(\Sc1ccc(F)c(Cl)c1)c1ccc(Cl)cc1 , what TGI is on record?
Out: 3.53 µM

In: For the compound Cc1cc2c(cc1C)N1C(Cl)=C3CCCCC3=C(C#N)C1N2 (stereo not drawn) , what TGI is on record?
Out: 10.6 µM

In: For the compound Cc1ccc(N(C)S(=O)(=O)c2ccc([N+](=O)[O-])cc2)cc1 , what TGI is on record?
Out: > 100 µM

In: For the compound Cc1cc(S(=O)(=O)Nc2nc(N)nc(N(C)C)n2)c(S)cc1Cl , what TGI is on record?
Out: > 10 µM

In: For the compound CC1=C(SCCC(=O)OCC(=O)NCCC[Te]c2ccccc2)C(=O)c2ccccc2C1=O , what TGI is on record?
Out: 5.78 µM

In: For the compound O=C(c1ccccc1)N1C2C3CC(OCc4ccccc4)(OCc4ccccc4)C(O3)C21 (stereo not drawn) , what TGI is on record?
Out: > 100 µM

In: For the compound COc1nc(NC2OC(COC(C)=O)C(OC(C)=O)C(OC(C)=O)C2OC(C)=O)c(N=CC=Nc2c(NC3OC(COC(C)=O)C(OC(C)=O)C(OC(C)=O)C3OC(C)=O)nc(OC)n(C)c2=O)c(=O)n1C (stereo not drawn) , what TGI is on record?
Out: > 100 µM

In: For the compound CN(C)CCCNC(=O)CCNC(=O)c1cc(NC(=O)c2cc(NC(=O)c3cc(NC(=O)CCCNC(=O)c4cc(NC(=O)c5cc(NC(=O)c6nccn6C)cn5C)cn4C)cn3C)cn2C)cn1C , what TGI is on record?
Out: > 100 µM

From: PubChem BioAssay (NCI)
